Test system: clinically isolated HIV strain H
Format: cell-based
Conditions: FR=EC50(mutant strain)/EC50(HIV-1 strain LAI)
Protocol: HIV- or mock-infected MT4 cells were incubated for five days in the presence of various concentrations of the inhibitor. […] Cell viability is measured by measuring the concentration of MTT, a yellow, water soluble tetrazolium dye that is converted to a purple, water insoluble formazan in the mitochondria of living cells only. Upon solubilization of the resulting formazan crystals with isopropanol, the absorbance of the solution is monitored at 540 nm. […]
Assay Metric: fold resistance (FR), strain H

[[record]]
compound = "CC(C)CN(C[C@@H](O)[C@H](Cc1ccccc1)NC(=O)OCc1cncs1)S(=O)(=O)c1ccc2nc(NCCN3CCCC3)sc2c1.O=C(O)C(F)(F)F"
measured_on = "clinically isolated HIV strain H"
measured = 1.4

[[record]]
compound = "CC(=O)N(CCN1CCCC1)c1nc2ccc(S(=O)(=O)N(CC(C)C)CC(O)C(Cc3ccccc3)NC(=O)OC3COC4OCCC34)cc2s1 (stereo not drawn)"
measured_on = "clinically isolated HIV strain H"
measured = 2.1

[[record]]
compound = "CC(=O)N(C)c1nc2ccc(S(=O)(=O)N(CC(C)C)C[C@@H](O)[C@H](Cc3ccccc3)NC(=O)c3cccc(O)c3C)cc2s1"
measured_on = "clinically isolated HIV strain H"
measured = 4.6

[[record]]
compound = "COC(=O)CNc1nc2ccc(S(=O)(=O)N(CC(C)C)CC(O)C(Cc3ccccc3)NC(=O)OC3COC4OCCC34)cc2s1 (mixture of isomers)"
measured_on = "clinically isolated HIV strain H"
measured = 7.7

[[record]]
compound = "CC(=O)N(C)c1nc2ccc(S(=O)(=O)N(CC(C)C)C[C@@H](O)[C@H](Cc3ccccc3)NC(=O)COc3c(C)cccc3C)cc2s1"
measured_on = "clinically isolated HIV strain H"
measured = 2.2

[[record]]
compound = "CC(C)CN(C[C@@H](O)[C@H](Cc1ccccc1)NC(=O)OCc1cccnc1)S(=O)(=O)c1ccc2nc(NCCCN(C)C)sc2c1"
measured_on = "clinically isolated HIV strain H"
measured = 1.8

[[record]]
compound = "CC(C)CN(C[C@@H](O)[C@H](Cc1ccccc1)NC(=O)O[C@H]1CO[C@H]2OCC[C@H]21)S(=O)(=O)c1ccc2nc(NCCN(C)C(=O)OC(C)(C)C)sc2c1"
measured_on = "clinically isolated HIV strain H"
measured = 4.8

[[record]]
compound = "CC(C)CN(CC(O)C(Cc1ccccc1)NC(=O)OC1COC2OCCC12)S(=O)(=O)c1ccc2nc(NC(=O)CN(C)C)sc2c1 (mixture of isomers) [Compound 3]"
measured_on = "clinically isolated HIV strain H"
measured = 1.0

[[record]]
compound = "CC(C)CN(CC(O)C(Cc1ccccc1)NC(=O)OC1COC2OCCC12)S(=O)(=O)c1ccc2nc(NC(=O)CN3CCCC3)sc2c1 (mixture of isomers) [Compound 7]"
measured_on = "clinically isolated HIV strain H"
measured = 0.5

[[record]]
compound = "CC(=O)Nc1nc2ccc(S(=O)(=O)N(CC(C)C)C[C@@H](O)[C@H](Cc3ccccc3)NC(=O)c3cc(N)ccc3C)cc2s1"
measured_on = "clinically isolated HIV strain H"
measured = 9.8

[[record]]
compound = "CC(=O)N(CCN1CCCC1)c1nc2ccc(S(=O)(=O)N(CC(C)C)C[C@@H](O)[C@H](Cc3ccccc3)NC(=O)COc3c(C)cccc3C)cc2s1"
measured_on = "clinically isolated HIV strain H"
measured = 2.6

[[record]]
compound = "CC(C)CN(C[C@@H](O)[C@H](Cc1ccccc1)NC(=O)OCc1cncs1)S(=O)(=O)c1ccc2nc(NCCN(C)C)sc2c1"
measured_on = "clinically isolated HIV strain H"
measured = 2.5

